Reference source for all entries: ChEMBL document CHEMBL4609986

- Organism: Homo sapiens
- Method Description: Selectivity index, ratio of CC50 for human HEK293T cells transfected with DYRK1A co-tranfected with Renilla plasmid, pGL3-NFAT and NFATc1 assessed as reduction in luciferase activity by measuring cell number to EC50 for human DYRK1A transfected in HEK293T cells co-transfected with Renilla plasmid, pGL3-NFAT and NFATc1 assessed as derepression of NFAT-dependent luciferase activity measured after 48 hrs by luciferase assay
- Type: cell-based
# strict inequality: Ratio CC50/EC50 < 20 yields met, everything else yields not met

[[record]]
line_notation = "CCOC(=O)c1cnc2ccc(-c3cc(C)c(O)c(C)c3)nc2c1N[C@H]1CC[C@H](CN(C)C)CC1"
assigned_category = "not met"

[[record]]
line_notation = "CN(C)C[C@H]1CC[C@H](Nc2c(C(=O)N(C)C)cnc3ccc(-c4cc(Cl)c(O)c(Cl)c4)nc23)CC1"
assigned_category = "not met"

[[record]]
line_notation = "CCCCNC(=O)c1cnc2ccc(-c3cc(Cl)c(O)c(Cl)c3)nc2c1N[C@H]1CC[C@H](C(=O)N2CCOCC2)CC1"
assigned_category = "not met"

[[record]]
line_notation = "CNC(=O)c1cnc2ccc(-c3cc(Cl)c(O)c(Cl)c3)nc2c1N[C@H]1CC[C@H](CN(C)C)CC1"
assigned_category = "met"

[[record]]
line_notation = "CCOC(=O)c1cnc2ccc(-c3cc(Cl)c(O)c(Cl)c3)nc2c1N[C@H]1CC[C@H](N)CC1"
assigned_category = "met"

[[record]]
line_notation = "CCOC(=O)c1cnc2ccc(-c3cc(Cl)c(O)c(Cl)c3)nc2c1N1CCCCC1"
assigned_category = "met"

[[record]]
line_notation = "CCOC(=O)c1cnc2ccc(-c3ccnc(N)c3)nc2c1N[C@H]1CC[C@H](CN(C)C)CC1"
assigned_category = "met"

[[record]]
line_notation = "CCOC(=O)c1cnc2ccc(-c3cc(Cl)c(O)c(Cl)c3)nc2c1N[C@H]1CC[C@H](C(=O)N(C)C)CC1"
assigned_category = "not met"

[[record]]
line_notation = "CN(C)C[C@H]1CC[C@H](Nc2c(C(N)=O)cnc3ccc(-c4cc(Cl)c(O)c(Cl)c4)nc23)CC1"
assigned_category = "met"

[[record]]
line_notation = "CCOC(=O)c1cnc2ccc(-c3cc(Cl)c(O)c(Cl)c3)nc2c1N1CCOCC1"
assigned_category = "not met"

[[record]]
line_notation = "CCCCCNC(=O)c1cnc2ccc(-c3cc(Cl)c(O)c(Cl)c3)nc2c1N[C@H]1CC[C@H](CN(C)C)CC1"
assigned_category = "met"

[[record]]
line_notation = "CC(C)CCNC(=O)c1cnc2ccc(-c3cc(Cl)c(O)c(Cl)c3)nc2c1N[C@H]1CC[C@H](CN(C)C)CC1"
assigned_category = "met"

[[record]]
line_notation = "CCOC(=O)c1cnc2ccc(-c3ccnc(N)c3)nc2c1N[C@H]1CC[C@H](CN2CCCC2)CC1"
assigned_category = "met"

[[record]]
line_notation = "CCOC(=O)c1cnc2ccc(-c3ccc(O)cc3)nc2c1N[C@H]1CC[C@H](CN(C)C)CC1"
assigned_category = "not met"

[[record]]
line_notation = "CCOC(=O)c1cnc2ccc(-c3cc(Cl)c(O)c(Cl)c3)nc2c1N1CCNCC1"
assigned_category = "not met"

[[record]]
line_notation = "CCOC(=O)c1cnc2ccc(-c3cc(Cl)c(O)c(Cl)c3)nc2c1N[C@H]1CC[C@H](C(=O)N2CCOCC2)CC1"
assigned_category = "not met"

[[record]]
line_notation = "CC(C)CNC(=O)c1cnc2ccc(-c3cc(Cl)c(O)c(Cl)c3)nc2c1N[C@H]1CC[C@H](CN(C)C)CC1"
assigned_category = "met"

[[record]]
line_notation = "CCOC(=O)c1cnc2ccc(-c3ccnc(N)c3)nc2c1N[C@H]1CC[C@H](CN2CCCCC2)CC1"
assigned_category = "met"

[[record]]
line_notation = "CCCNC(=O)c1cnc2ccc(-c3cc(Cl)c(O)c(Cl)c3)nc2c1N[C@H]1CC[C@H](CN(C)C)CC1"
assigned_category = "met"

[[record]]
line_notation = "CCNC(=O)c1cnc2ccc(-c3cc(Cl)c(O)c(Cl)c3)nc2c1N[C@H]1CC[C@H](CN(C)C)CC1"
assigned_category = "met"

[[record]]
line_notation = "CN(C)C[C@H]1CC[C@H](Nc2c(C#N)cnc3ccc(-c4cc(Cl)c(O)c(Cl)c4)nc23)CC1"
assigned_category = "not met"

[[record]]
line_notation = "CCOC(=O)c1cnc2ccc(-c3cc(Cl)c(O)c(Cl)c3)nc2c1N[C@H]1CC[C@H](CNC(C)=O)CC1"
assigned_category = "not met"

[[record]]
line_notation = "CCOC(=O)c1cnc2ccc(-c3ccnc(N)c3)nc2c1N[C@H]1CC[C@H](CN2CCOCC2)CC1"
assigned_category = "not met"

